- System Name: recombinant pro-PrP^23-253 (human, UniProt P04156 23-253)
- Procedure Summary: in vitro pull-down with mAb 8H4 and protein G beads, anti-GST immunoblot
Property: binding result

| Binder | Property | Result |
| --- | --- | --- |
| GST-tagged FLNa domain 10 (other, domain: domain 10) VPCFDASKVKCSGPGLERATAGEVGQFQVDCSSAGSAELTIEICSEAGLPAEVYIQDHGDGTHTITYIPLCPGAYTVTIKYGGQPVPNFPSKLQV | binding result | binds |
